# Test system: SW480
# TEST METHOD NOTES: Antiproliferative activity against human SW480 cells assessed as reduction in cell growth after 72 hrs by MTT assay
# Assay type: functional, cell-based
# RECORDED CONDITIONS: SW480, 72 h
QUANTITY NAME: pIC50
As a rule, pIC50 stands for the negative log10 of the concentration, concentration in M.

SAMPLE SMILES: C=C1C(=O)[C@@]23C(=O)OC[C@]4(C=CCC(C)(C)[C@H]4C=O)[C@@H]2CC[C@@H]1[C@H]3OC(=O)/C=C/c1ccc[nH]1
VALUE MEASURED: 5.61

Return pIC50 measured with SW480 given this compound: `C=C1C(=O)[C@@]23C(=O)OC[C@]4(C=CCC(C)(C)[C@H]4C=O)[C@@H]2CC[C@@H]1[C@H]3OC(=O)/C=C/c1ccc2c(c1)OCO2`
5.46

Form: Entry = `C=C1C(=O)[C@@]23C(=O)O[C@H]4CCC(C)(C)[C@H]5C(=O)OC[C@]45[C@H]2CC[C@@H]1[C@H]3O` | System = SW480 | pIC50 = ____
5.18

====

# Test system: MDA-MB-231
# TEST METHOD NOTES: Antiproliferative activity against human MDA-MB-231 cells assessed as reduction in cell growth after 72 hrs by MTT assay
# Format: functional, cell-based
# RECORDED CONDITIONS: MDA-MB-231, 72 h
Property: IC50; scope: individual compounds
Entry rule: numbers only, all in nM.

Requested read-out: IC50. Entry: `C=C1C(=O)[C@@]23C(=O)O[C@H]4CCC(C)(C)[C@H]5C(=O)OC[C@]45[C@H]2CC[C@@H]1[C@H]3OC(=O)/C=C/c1ccncc1C`
1080

Item under review: `C=C1C(=O)[C@@]23C(=O)OC[C@]4(C=CCC(C)(C)[C@H]4C=O)[C@@H]2CC[C@@H]1[C@H]3OC(=O)/C=C/c1ccnc(C)c1` . Reported IC50?
1480

Query: IC50; subject: `C=C1C(=O)[C@@]23C(=O)O[C@H]4CCC(C)(C)[C@H]5C(=O)OC[C@]45[C@H]2CC[C@@H]1[C@H]3O`
7620

Which IC50 is listed for `C=C1C(=O)[C@@]23C(=O)O[C@H]4CCC(C)(C)[C@H]5C(=O)OC[C@]45[C@H]2CC[C@@H]1[C@H]3OC(=O)/C=C/c1ccnc(F)c1` ?
760

Please look up its IC50: `C=C1C(=O)[C@@]23C(=O)OC[C@]4(C=CCC(C)(C)[C@H]4C=O)[C@@H]2CC[C@@H]1[C@H]3OC(=O)/C=C/c1ccccn1`
1260

I am curious: what IC50 value has been reported for `C=C1C(=O)[C@@]23C(=O)OC[C@]4(C=CCC(C)(C)[C@H]4C=O)[C@@H]2CC[C@@H]1[C@H]3OC(=O)/C=C/c1ccncc1OC` ?
870

Item `C=C1C(=O)[C@@]23C(=O)OC[C@]4(C=CCC(C)(C)[C@H]4C=O)[C@@H]2CC[C@@H]1[C@H]3OC(=O)/C=C/c1ccnc(F)c1` has what recorded IC50?
790

====

# Test system: SW480
# TEST METHOD NOTES: Antiproliferative activity against human SW480 cells assessed as reduction in cell growth after 72 hrs by MTT assay
# Type: functional, cell-based
# RECORDED CONDITIONS: SW480, 72 h
QUANTITY NAME: pIC50
pIC50 is defined as minus the log10 of a concentration measured in mol/L.

COMPOUND: C=C1C(=O)[C@@]23C(=O)OC[C@]4(C=CCC(C)(C)[C@H]4C=O)[C@@H]2CC[C@@H]1[C@H]3OC(=O)/C=C/c1ccncc1OC
pIC50: 6.24
//
COMPOUND: C=C1C(=O)[C@@]23C(=O)O[C@H]4CCC(C)(C)[C@H]5C(=O)OC[C@]45[C@H]2CC[C@@H]1[C@H]3OC(=O)/C=C/c1ccnc(F)c1
pIC50: 6.11
//
COMPOUND: C=C1C(=O)[C@@]23C(=O)OC[C@]4(C=CCC(C)(C)[C@H]4C=O)[C@@H]2CC[C@@H]1[C@H]3OC(=O)/C=C/c1cccnc1
pIC50: 6.32
//
COMPOUND: C=C1C(=O)[C@]23[C@H](O)[C@H]1CC[C@H]2[C@@]12CO[C@]3(O)[C@@H](O)[C@@H]1C(C)(C)CC[C@@H]2O [ORIDONIN]
pIC50: 4.98
//
COMPOUND: C=C1C(=O)[C@@]23C(=O)O[C@H]4CCC(C)(C)[C@H]5C(=O)OC[C@]45[C@H]2CC[C@@H]1[C@H]3OC(=O)/C=C/c1ccncc1C
pIC50: 6.12
//
COMPOUND: C=C1C(=O)[C@@]23C(=O)OC[C@]4(C=CCC(C)(C)[C@H]4C=O)[C@@H]2CC[C@@H]1[C@H]3OC(=O)/C=C/c1ccc2ccccc2n1
pIC50: 5.47
//
COMPOUND: C=C1C(=O)[C@@]23C(=O)OC[C@]4(C=CCC(C)(C)[C@H]4C=O)[C@@H]2CC[C@@H]1[C@H]3OC(=O)/C=C/c1ccccn1
pIC50: 6.18
//
COMPOUND: C=C1C(=O)[C@@]23C(=O)O[C@H]4CCC(C)(C)[C@H]5C(=O)OC[C@]45[C@H]2CC[C@@H]1[C@H]3OC(=O)/C=C/c1ccncc1F
pIC50: 6.01
//
COMPOUND: C=C1C(=O)[C@@]23C(=O)O[C@H]4CCC(C)(C)[C@H]5C(=O)OC[C@]45[C@H]2CC[C@@H]1[C@H]3OC(=O)/C=C/c1ccnc(OC)c1
pIC50: 6.03
//
COMPOUND: C=C1C(=O)[C@@]23C(=O)O[C@H]4CCC(C)(C)[C@H]5C(=O)OC[C@]45[C@H]2CC[C@@H]1[C@H]3OC(=O)/C=C/c1ccncc1
pIC50: 6.15

Query (compound): `C=C1C(=O)[C@@]23C(=O)OC[C@]4(C=CCC(C)(C)[C@H]4C=O)[C@@H]2CC[C@@H]1[C@H]3OC(=O)/C=C/c1ccncc1` ; field requested: pIC50
6.09

Entry `C=C1C(=O)[C@@]23C(=O)OC[C@]4(C=CCC(C)(C)[C@H]4C=O)[C@@H]2CC[C@@H]1[C@H]3OC(=O)/C=C/c1ccnc(C)c1` : reported pIC50 = ?
5.77

Quick check: pIC50 of `C=C1C(=O)[C@@]23C(=O)OC[C@]4(C=CCC(C)(C)[C@H]4C=O)[C@@H]2CC[C@@H]1[C@H]3OC(=O)/C=C/c1ccccc1` ?
5.45
